Each recorded value in this set is attributed to patent US20230272051A1.

- measured target: T1, SARS-CoV-2 Receptor Binding Domain (RBD) protein (SARS-CoV-2, UniProt P0DTC2 319-541)
- T1 construct: also called Sars-Cov-2 (COV2)
- test summary: SPR (Carterra LSA); scFv captured by anti-V5, RBD as analyte
value kind: kon
Please answer using a numeric value trailed by its unit.

# count of solved cases: 2
COVID19_P13_C07 (scFv, V domains shown) VH: QVQLVQSGAEVKKPGSSVKVSCKASGGTFSRYDINWVRQAPGQGLEWMGIINPSGGSTTYAQKFQGRVTITADESTSTAYMELSSLRSEDTAVYYCAHDTVMGGMDVWGQGTLVTVSS VL: SSYVLTQPPSVSVAPGKTARITCGGNNIGSKSVHWYQQKPGQAPVLVIYYDSDRPSGIPERFSGSNSGNTATLTISRVEAGDEADYYCQVWDSSSYYVFGGGTKLTVLA | 230000 M⁻¹ s⁻¹
COVID19_P14_E01 (scFv, V domains shown) VH: QVQLVQSGAEVKKPGSSVKVSCKASGYTFTSYYMHWVRQAPGQGLEWMGGITPIFGTANYAQKFQGRVTITADESTSTAYMELSSLRSEDTAVYYCAVETVMGGMQMWGQGTLVTVSS VL: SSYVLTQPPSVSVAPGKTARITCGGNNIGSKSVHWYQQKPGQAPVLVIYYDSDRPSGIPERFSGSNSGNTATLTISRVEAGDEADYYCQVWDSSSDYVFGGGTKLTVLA | 76800 M⁻¹ s⁻¹

Turning to the following binder.
In: What does the record list as kon for COVID19_P13_A08 (scFv, V domains shown) VH: QVQLVQSGAEVKKPGSSVKVSCKASGYTFINYDINWVRQAPGQGLEWMGGITPIFGTANYAQKFQGRVTITADESTSTAYMELSSLRSEDTAVYYCARDTVMGGMDVWGQGTLVTVSS VL: SSYVLTQPPSVSVAPGKTARITCGGNNIGSKSVHWYQQKPGQAPVLVIYYDSDRPSGIPERFSGSNSGNTATLTISRVEAGDEADYYCQVWDSRSDYVFGGGTKLTVLA ?
Out: 46000 M⁻¹ s⁻¹
